# ASSAYED_SYSTEM: Cytochrome P450 2C9 (Homo sapiens) (UniProt P11712)
# Sequence (P11712 whole entry, looked up): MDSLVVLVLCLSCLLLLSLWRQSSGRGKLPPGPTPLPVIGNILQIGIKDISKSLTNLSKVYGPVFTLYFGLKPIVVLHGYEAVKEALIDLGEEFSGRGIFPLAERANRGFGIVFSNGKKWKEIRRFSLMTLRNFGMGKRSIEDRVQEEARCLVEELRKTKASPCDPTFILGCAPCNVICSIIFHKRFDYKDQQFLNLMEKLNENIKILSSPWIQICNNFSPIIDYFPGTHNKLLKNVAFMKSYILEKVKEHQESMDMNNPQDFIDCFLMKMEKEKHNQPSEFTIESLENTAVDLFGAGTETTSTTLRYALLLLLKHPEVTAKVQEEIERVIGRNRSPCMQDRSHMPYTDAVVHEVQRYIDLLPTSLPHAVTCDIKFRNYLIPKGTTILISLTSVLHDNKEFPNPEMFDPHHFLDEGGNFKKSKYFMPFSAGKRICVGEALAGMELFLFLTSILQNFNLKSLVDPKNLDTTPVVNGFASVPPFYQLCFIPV
# PROTOCOL_SUMMARY: blockers of cytochrome P450 2C9 activity – biochemical, luminescence, ADME assay, primary screen (AID 777)
# TEST_PARAMETERS: CYP2C9 Supersomes, luciferin-H conversion, at 5 µM, stronger effect = higher value
In all, about 96,000 compounds went through this assay and about 19,000 (20%) were called active. A selection follows.
ENDPOINT_NAME: inhibition (%)
Give the quantity in %, number only.

Entry CCN(c1ccc2c(c1)OCO2)S(=O)(=O)c1cc(Br)cc2c1N(C(=O)C1CC1)CC2 has what inhibition? 33.6

Param item = CC12C(=O)N(n3cnnc3)C(=O)C1C1C=CC2C1 (stereo not drawn) ; retrieve measured inhibition. 1.9

Need inhibition of O=C(CSCc1c(Cl)cccc1Cl)NN1C(=O)c2ccccc2C1=O , thanks. 34.3

I have this compound here, CC1CCCC(NC(=O)CN2CCN(Cc3ccc(Cl)cc3)C2=O)C1C (stereo not drawn) , and I need its recorded inhibition. 15.9

Look at this compound and give its reported inhibition. CC1OC2C(OC1C)N(S(C)(=O)=O)CCN2S(C)(=O)=O (stereo not drawn) -6.8

Could you share which inhibition value was measured for CC(C)CCNC(=O)Cn1c(=O)oc2cc(S(=O)(=O)N3CC(C)CC(C)C3)ccc21 (stereo not drawn) ? 51.3

Dear colleague, I am looking for the recorded inhibition of the following compound: OCCN(Cc1ccccc1)Cc1ccc(Cl)cc1 87.6

Entry COc1cc(C(O)c2nc3ccccc3n2C)cc(OC)c1OC (stereo not drawn) has what inhibition? 35.4

State the recorded inhibition for this entry: Cc1ccc(C)c(NC(=O)C2Cc3ccccc3CN2C(=O)OCc2ccccc2)c1 (stereo not drawn) 65

Requested read-out: inhibition. Entry: O=C1[C@@H]2C(Cc3ccc(O)cc3)NC3(C(=O)Nc4ccc(F)cc43)[C@@H]2C(=O)N1c1ccc(F)cc1 (stereo partly drawn) 50.6

# get_value(readout='inhibition', item= O=C(NC(c1ccccc1)c1ccccc1)N1CCN(CCO)CC1 ) 4

Field request: inhibition | item: CC1CCc2c(c3ccccc3[nH]c2=O)O1 (stereo not drawn) 35

Looking for the measured inhibition of CC(C)(C)NC(=O)COc1ccc(CNc2ccc3[nH]c(=O)[nH]c3c2)cc1 , can you help? 31.4

Value lookup for inhibition; key = O=C(Nc1ccccc1Cl)N1CCN(c2ccc3nncn3n2)CC1 37.8

So what's the measured inhibition for this one? CNC(=O)c1nnn(-c2ccccc2)c1C(=O)NC -7.1

Report inhibition for O=C(O)C1CC=CCC1C(=O)NCCc1ccccc1 (stereo not drawn) please. -21.1

Sample Cc1ccc(S(=O)(=O)N(C)C2(C)CCS(=O)(=O)C2)cc1 (stereo not drawn) — what was its inhibition? -7.6

Quick check: inhibition of CN(C)CCCn1c(N)c(C#N)c2nc(C#N)c(C#N)nc21 ? -11.9

# query: inhibition of entry CCN1C(=O)/C(=C2/Sc3ccccc3N2CCCS(=O)(=O)O)SC1=S 7

For the compound shown here, CN1CCN(C(=O)Cn2c(C(F)(F)F)nc3ccccc32)CC1 , give the reported inhibition. -8.1

I would be grateful if you could share the reported inhibition for Cc1ccc(S(=O)(=O)NC(=O)N2CCCC(C)(C)C2)cc1 . -2

Need inhibition, item Cc1ccc(NC(=S)Nc2ncccc2C)c(C)c1 -26.1

Report inhibition for COC(=O)C1C(=O)NCC1c1ccc(C)cc1 (stereo not drawn) please. 17.3

If you can, please state the reported inhibition value of O=C(NC1CCCCC1)n1c(=O)oc2cc(S(=O)(=O)N3CCCCC3)ccc21 . -56.7

Tell me the measured inhibition of CCCN1C(=O)C(NC(C)=O)c2cc(OC)ccc21 (stereo not drawn) , please. -5.4

Which inhibition value is on record for CCOC(=O)N1CCN(C(=O)C2CCN(S(C)(=O)=O)CC2)CC1 ? -10.2

Tell me the measured inhibition of COC(=O)C1=C(Nc2ccc(OC)cc2)C=C(C)C(C(=O)OC)C1c1ccc(C)cc1 (stereo not drawn) , please. 51.9

What does the data say about its inhibition? Entry: CCOC(=O)N1CCC(C(N)=O)CC1 -7.1

Which inhibition is reported for this compound? COc1ncnc2sc3c(c12)CCCC3 19.3

Form field: reported inhibition of CCCCc1cc(=O)oc2cc(C)cc(OCc3nn[nH]n3)c12 67.5

inhibition for COc1ccc([N+](=O)[O-])cc1C1NN=C(c2cccc3ccccc23)S1 (stereo not drawn) ? -70.8

Dear colleague, I am looking for the recorded inhibition of the following compound: CCOC(=O)c1nnn(-c2nonc2OC)c1-c1ccccc1 26.7

Request the reported inhibition associated with CC(=O)c1ccc2c(ccc3ccccc32)c1 40.7

Fill blank: measured inhibition of the compound O=C(c1cnn2ccccc12)N1CCc2ccccc21 is ____. -42.7

Any idea what inhibition was measured for CC(C)Oc1ccc(C(=O)Nc2cc(=O)n(C)c(=O)n2C)cc1 ? 10.6

Any idea what its inhibition is? The compound is CCCCSc1[nH]c(=O)c(C(=O)OCC)cc1C#N 19.4

Entry CC1(C)CC(O)C(CCC(O)c2ccccc2)C(C)(C)N1 (stereo not drawn) has what inhibition? -1.7

Which inhibition is reported for this compound? CC(C)c1ccc(C(=O)NCCCc2ccccc2)cc1 37.2

# get_value(readout='inhibition', item= O=C(C1CCN(S(=O)(=O)Cc2ccccc2)CC1)N1CCCc2ccccc21 ) 51.8

Data request, read-out inhibition, for Cc1ccc(C(=O)NCC2CCCO2)o1 (stereo not drawn) 2.8

Look at this compound and give its reported inhibition. O=C(O)c1cccc2c1C(=O)N(C1CCCCC1)C2 -13.9

Recorded inhibition of Cc1ccc(C)c(NC(=O)C2CCCN2C(=O)OC(C)(C)C)c1 (stereo not drawn) , please. -1.5

Given the entry CCOc1ccccc1N=C1NC(=O)CS1 , report its measured inhibition. -11.8

// query inhibition value for entry CCOC1CCCCC1NS(=O)(=O)c1ccc(Cl)cc1 (stereo not drawn) 5.6

For the compound CN1CCCC(OC(=O)COc2ccc(Br)cc2)C1 (stereo not drawn) , what inhibition is on record? -1.2

Tell me the measured inhibition of CCc1cc(=O)oc2cc(C)cc(OC(C)C(=O)O)c12 (stereo not drawn) , please. -7.1

Given the entry CSCCC(Nc1nc2ccccc2s1)C(=O)O (stereo not drawn) , report its measured inhibition. 25.8

Return reported inhibition; argument: CC1(C)COC(c2cccn2Cc2ccccc2Cl)=N1 13.6
